Data origin: paper PMC3711073

# tested on: MLL-GACKIX complex (GACKIX domain of CBP/p300) (Mus musculus, UniProt P45481)
# Sequence (P45481 586-665 limits assumed, one chain of several): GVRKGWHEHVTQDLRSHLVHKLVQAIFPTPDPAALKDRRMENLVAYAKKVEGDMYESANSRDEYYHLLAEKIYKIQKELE
# Format: binding
parameter measured: IC50 (µM)
The figure you give is taken to be in µM; do not add the unit.

Report IC50 for CCCCCc1c2c(cc(O)c1C(=O)O)OC(=O)c1c(cc(OC)cc1C(=O)CCCC)O2 17
